Experiment: MB-102 pig plasma concentration after IV dosing
Assay type: in vivo
Settings: Yorkshire, plasma, 3.2 mg/kg; pig 48019, IV, 3.2 mpk, 30 min; read-out: MB-102 Pig Plasma Conc.

| Mol Smiles | concentration at 30 min / ng/mL |
| --- | --- |
| Nc1nc(C(=O)N[C@H](CO)C(=O)O)c(N)nc1C(=O)N[C@H](CO)C(=O)O | 9200 |

###

Assay: MB-102 pig plasma concentration after subcutaneous dosing
Assay type: in vivo
Details: Yorkshire, pig, plasma, subcutaneous, 3.2 mg/kg, pig 09802, SubQ, 3.2 mpk, 270 min; read-out: MB-102 Pig Plasma Conc.
Measured Quantity: concentration at 270 min (ng/mL)

| Mol Smiles | Val |
| --- | --- |
| Nc1nc(C(=O)N[C@H](CO)C(=O)O)c(N)nc1C(=O)N[C@H](CO)C(=O)O | 1600 |

###

Experiment: MB-102 pig plasma concentration after subcutaneous dosing
Assay type: in vivo
Conditions: Yorkshire, pig, plasma, subcutaneous, 3.2 mg/kg, pig 09802, SubQ, 3.2 mpk, 165 min; read-out: MB-102 Pig Plasma Conc.

| Mol Smiles | concentration at 165 min |
| --- | --- |
| Nc1nc(C(=O)N[C@H](CO)C(=O)O)c(N)nc1C(=O)N[C@H](CO)C(=O)O | 3500 ng/mL |

###

Test: MB-102 pig plasma concentration after subcutaneous dosing
Type: in vivo
Settings: Yorkshire, pig, plasma, subcutaneous, 3.2 mg/kg, pig 52771, SubQ, 3.2 mpk, 135 min; read-out: MB-102 Pig Plasma Conc.
Protocol: Juvenile Yorkshire pigs weighing approximately 25 kg were anesthetized, their body temperature stabilized, and an IV port surgically placed. […] After the skin was dry the sensors were attached with commercially available skin adhesive and background skin auto-fluorescence measurements were recorded. […] At this point glomerular elimination of MB-102 by the kidneys led to a decrease of fluorescence signal over time. […]
Measured Quantity: concentration at 135 min (ng/mL)

| Mol Smiles | U | Val |
| --- | --- | --- |
| Nc1nc(C(=O)N[C@H](CO)C(=O)O)c(N)nc1C(=O)N[C@H](CO)C(=O)O | ng/mL | 5000 |

###

Assay: MB-102 pig plasma concentration after IV dosing
Format: in vivo
Conditions: Yorkshire, plasma, 3.2 mg/kg; pig 48019, IV, 3.2 mpk, 225 min; read-out: MB-102 Pig Plasma Conc.
Experimental: Juvenile Yorkshire pigs weighing approximately 25 kg were anesthetized, their body temperature stabilized, and an IV port surgically placed. […] After the skin was dry the sensors were attached with commercially available skin adhesive and background skin auto-fluorescence measurements were recorded. […] At this point glomerular elimination of MB-102 by the kidneys led to a decrease of fluorescence signal over time. […]

| Mol Smiles | concentration at 225 min / ng/mL |
| --- | --- |
| Nc1nc(C(=O)N[C@H](CO)C(=O)O)c(N)nc1C(=O)N[C@H](CO)C(=O)O | 1690 |

###

Test: MB-102 pig plasma concentration after IV dosing
Type: in vivo
Details: Yorkshire, plasma, 3.2 mg/kg; pig 48019, IV, 3.2 mpk, 135 min; read-out: MB-102 Pig Plasma Conc.
Procedure: Juvenile Yorkshire pigs weighing approximately 25 kg were anesthetized, their body temperature stabilized, and an IV port surgically placed. […] After the skin was dry the sensors were attached with commercially available skin adhesive and background skin auto-fluorescence measurements were recorded. […] At this point glomerular elimination of MB-102 by the kidneys led to a decrease of fluorescence signal over time. […]
Measured Quantity: concentration at 135 min (ng/mL)

| Mol Smiles | Val |
| --- | --- |
| Nc1nc(C(=O)N[C@H](CO)C(=O)O)c(N)nc1C(=O)N[C@H](CO)C(=O)O | 3250 |

###

Assay: MB-102 pig plasma concentration after subcutaneous dosing
Assay type: in vivo
Settings: Yorkshire, pig, plasma, subcutaneous, 3.2 mg/kg, pig 52771, SubQ, 3.2 mpk, 195 min; read-out: MB-102 Pig Plasma Conc.
Measured Quantity: concentration at 195 min (ng/mL)

| Compound | Val |
| --- | --- |
| Nc1nc(C(=O)N[C@H](CO)C(=O)O)c(N)nc1C(=O)N[C@H](CO)C(=O)O [MB-102] | 3190 |

###

Test: MB-102 pig plasma concentration after subcutaneous dosing
Assay type: in vivo
Conditions: Yorkshire, pig, plasma, subcutaneous, 3.2 mg/kg, pig 09802, SubQ, 3.2 mpk, 225 min; read-out: MB-102 Pig Plasma Conc.

| Compound | concentration at 225 min, ng/mL |
| --- | --- |
| Nc1nc(C(=O)N[C@H](CO)C(=O)O)c(N)nc1C(=O)N[C@H](CO)C(=O)O [MB-102] | 2200 |

###

Assay: MB-102 pig plasma concentration after IV dosing
Format: in vivo
Conditions: Yorkshire, plasma, 3.2 mg/kg; pig 48019, IV, 3.2 mpk, 45 min; read-out: MB-102 Pig Plasma Conc.

| Mol Smiles | U | concentration at 45 min |
| --- | --- | --- |
| Nc1nc(C(=O)N[C@H](CO)C(=O)O)c(N)nc1C(=O)N[C@H](CO)C(=O)O | ng/mL | 7830 |

###

Experiment: MB-102 pig plasma concentration after subcutaneous dosing
Assay type: in vivo
Conditions: Yorkshire, pig, plasma, subcutaneous, 3.2 mg/kg, pig 53701, SubQ, 3.2 mpk, 195 min; read-out: MB-102 Pig Plasma Conc.

| Compound | concentration at 195 min, ng/mL |
| --- | --- |
| Nc1nc(C(=O)N[C@H](CO)C(=O)O)c(N)nc1C(=O)N[C@H](CO)C(=O)O [MB-102] | 2170 |

###

Assay: MB-102 pig plasma concentration after subcutaneous dosing
Format: in vivo
Conditions: Yorkshire, pig, plasma, subcutaneous, 3.2 mg/kg, pig 09802, SubQ, 3.2 mpk, 105 min; read-out: MB-102 Pig Plasma Conc.
Measured Quantity: concentration at 105 min (ng/mL)

| Molecule | Val |
| --- | --- |
| Nc1nc(C(=O)N[C@H](CO)C(=O)O)c(N)nc1C(=O)N[C@H](CO)C(=O)O [MB-102] | 4810 |

###

Test: MB-102 pig plasma concentration after IV dosing
Format: in vivo
Conditions: Yorkshire, plasma, 3.2 mg/kg; pig 48019, IV, 3.2 mpk, 300 min; read-out: MB-102 Pig Plasma Conc.

| Compound | concentration at 300 min, ng/mL |
| --- | --- |
| Nc1nc(C(=O)N[C@H](CO)C(=O)O)c(N)nc1C(=O)N[C@H](CO)C(=O)O [MB-102] | 1110 |

###

Assay: MB-102 pig plasma concentration after subcutaneous dosing
Assay type: in vivo
Settings: Yorkshire, pig, plasma, subcutaneous, 3.2 mg/kg, pig 53701, SubQ, 3.2 mpk, 45 min; read-out: MB-102 Pig Plasma Conc.

| Mol Smiles | concentration at 45 min (ng/mL) |
| --- | --- |
| Nc1nc(C(=O)N[C@H](CO)C(=O)O)c(N)nc1C(=O)N[C@H](CO)C(=O)O | 6620 |

###

Assay: MB-102 pig plasma concentration after intramuscular dosing
Format: in vivo
Conditions: Yorkshire, plasma, intramuscular, 3.2 mg/kg; pig 09801, IM, 3.2 mpk, 270 min; read-out: MB-102 Pig Plasma Conc.
Measured Quantity: concentration at 270 min (ng/mL)

| Mol Smiles | Measured Quantity | Val |
| --- | --- | --- |
| Nc1nc(C(=O)N[C@H](CO)C(=O)O)c(N)nc1C(=O)N[C@H](CO)C(=O)O | concentration at 270 min | 434 |

###

Experiment: MB-102 pig plasma concentration after subcutaneous dosing
Format: in vivo
Settings: Yorkshire, pig, plasma, subcutaneous, 3.2 mg/kg, pig 52771, SubQ, 3.2 mpk, 360 min; read-out: MB-102 Pig Plasma Conc.

| Mol Smiles | concentration at 360 min, ng/mL |
| --- | --- |
| Nc1nc(C(=O)N[C@H](CO)C(=O)O)c(N)nc1C(=O)N[C@H](CO)C(=O)O | 1000 |

###

Assay: MB-102 pig plasma concentration after IV dosing
Type: in vivo
Conditions: Yorkshire, plasma, 3.2 mg/kg; pig 48019, IV, 3.2 mpk, 285 min; read-out: MB-102 Pig Plasma Conc.
Protocol: Juvenile Yorkshire pigs weighing approximately 25 kg were anesthetized, their body temperature stabilized, and an IV port surgically placed. […] After the skin was dry the sensors were attached with commercially available skin adhesive and background skin auto-fluorescence measurements were recorded. […] At this point glomerular elimination of MB-102 by the kidneys led to a decrease of fluorescence signal over time. […]

| Mol Smiles | U | concentration at 285 min |
| --- | --- | --- |
| Nc1nc(C(=O)N[C@H](CO)C(=O)O)c(N)nc1C(=O)N[C@H](CO)C(=O)O | ng/mL | 1140 |
